Reference source for all entries: PubChem BioAssay (NCI)

# Tested on: UACC-257 melanoma
# PROTOCOL: NCI-60 one-dose screen, 48 h
# CONDITION CONTEXT: 10 µM unless noted
This is part of a sample that, as a whole, favours compounds with a hit. Of some 83,000 tested, about 20% had one in any assay. Activity calls are given as the source filed them. The calls were made as follows: active = growth percent below 10; inactive = the rest.
// allowed return values: True (active), False (inactive)

Assay outcome for O=C(CCl)Oc1ccc(-c2ccccc2)c(Br)c1 : what was it?
False

// return assay outcome for CC(=O)c1cc(C(=O)c2ccc3c(c2)Sc2ccccc2N3)n2ccccc12
False

Check the results log: what was the call for N#CCCN=Nc1c(O)[nH]c2ccc(F)cc12 ?
False

Please indicate how the test categorized COc1ccc(/C=C/C(=O)c2ccc(O)c(CN3CCN(c4cc5c(cc4F)c(=O)c(C(=O)O)cn5C4CC4)CC3)c2)cc1 .
False

# lookup: test call for COC(=O)c1ccc2oc(NC(=O)c3ccc(Nc4ccc([N+](=O)[O-])cc4C)c([N+](=O)[O-])c3)nc2c1
False

Write down the call the test reported for this compound. Item: Nc1n[nH]c2cc(F)c([C@@H]3Nc4ccc5[nH]ncc5c4[C@H]4C5CCC(C5)[C@@H]34)cc12 (some centres undefined)
False

Which outcome was entered for the compound CC[N+](CC)=c1sc2c(s1)C(c1ccc(Cl)cc1)Oc1ccc(Cl)cc1-2 (centres undefined) in this test?
True

Called result for COc1cccc2c1C(=O)c1c(O)c3c(c(O)c1C2=O)C[C@](O)(C(=O)CO)C[C@H]3O[C@@H]1C[C@@H](NC(=O)CCCCCN(C)C2(c3ccc(F)cc3)CC3CCC2C3)[C@H](O)[C@@H](C)O1 (some centres undefined)
False

Can you look up the reported call for FC(F)(F)c1nc2c(NCc3ccc(-c4ccccc4)cc3)cccc2[nH]1 for me?
False
